target: Na+/K+-ATPase (Canis lupus familiaris); construct: enzyme preparation from dog kidney (Sigma); purchased Sigma; host or cells: dog kidney tissue; experiment: Na+/K+-ATPase inhibition; assay type: biochemical, dog; details: read-out: IC50 for inhibition of Na+/K+-ATPase
reported-metric: IC50

{"compound": "C[C@@H]1OC(OC2C=C3CCC4C(CC[C@]5(C)[C@@H](c6ccc(=O)oc6)CC[C@]45O)[C@@]3(C)CC2)[C@H](O)[C@H](O)[C@H]1O (stereo partly shown)", "reported-value": "~0.13 µM"}

----------
IC50 by entry:
system: panel of 10 cancer cell lines; assay: cytotoxicity against a panel of 10 cancer cell lines; type: cell-based; conditions: read-out: median IC50
reported-metric: IC50 (nM)

{"input-smiles": "C[C@@H]1O[C@@H](O[C@H]2C[C@@H](O)[C@]3(CO)[C@H]4[C@H](O)C[C@]5(C)[C@@H](C6=CC(=O)OC6)CC[C@]5(O)[C@@H]4CC[C@]3(O)C2)[C@H](O)[C@H](O)[C@H]1O", "unit-abbreviation": "nM", "reported-value": 78}
{"input-smiles": "C[C@H]1O[C@@H](O[C@H]2[C@@H](O)C[C@H](O[C@H]3[C@@H](O)C[C@H](O[C@H]4CC[C@@]5(C)[C@H](CC[C@@H]6[C@@H]5C[C@@H](O)[C@]5(C)[C@@H](C7=CC(=O)OC7)CC[C@]65O)C4)O[C@@H]3C)O[C@@H]2C)C[C@H](O)[C@@H]1O", "unit-abbreviation": "nM", "reported-value": 37}

----------
Recorded IC50 values for a group of compounds are listed next.
target: Na+/K+-ATPase (Canis lupus familiaris, UniProt P50997); construct: enzyme preparation from dog kidney (Sigma); purchased Sigma; host or cells: dog kidney tissue; test: Na+/K+-ATPase inhibition; format: biochemical, dog

{"compound": "CC(=O)OC1C=C2CCC3C4=CC[C@H](c5ccc(=O)oc5)[C@@]4(C)CCC3[C@@]2(C)CC1 (some centres unmarked)", "IC50, µM": 65}
{"compound": "C[C@@H]1OC(OC2C=C3CCC4C5=CC[C@H](c6ccc(=O)oc6)[C@@]5(C)CCC4[C@@]3(C)CC2)[C@H](O)[C@H](O)[C@H]1O (some centres unmarked)", "IC50, µM": 1.38}
